- study_system: Protein cereblon/Tyrosine-protein kinase BTK (Homo sapiens, UniProt Q06187+Q96SW2)
- Sequence (Q06187 whole entry): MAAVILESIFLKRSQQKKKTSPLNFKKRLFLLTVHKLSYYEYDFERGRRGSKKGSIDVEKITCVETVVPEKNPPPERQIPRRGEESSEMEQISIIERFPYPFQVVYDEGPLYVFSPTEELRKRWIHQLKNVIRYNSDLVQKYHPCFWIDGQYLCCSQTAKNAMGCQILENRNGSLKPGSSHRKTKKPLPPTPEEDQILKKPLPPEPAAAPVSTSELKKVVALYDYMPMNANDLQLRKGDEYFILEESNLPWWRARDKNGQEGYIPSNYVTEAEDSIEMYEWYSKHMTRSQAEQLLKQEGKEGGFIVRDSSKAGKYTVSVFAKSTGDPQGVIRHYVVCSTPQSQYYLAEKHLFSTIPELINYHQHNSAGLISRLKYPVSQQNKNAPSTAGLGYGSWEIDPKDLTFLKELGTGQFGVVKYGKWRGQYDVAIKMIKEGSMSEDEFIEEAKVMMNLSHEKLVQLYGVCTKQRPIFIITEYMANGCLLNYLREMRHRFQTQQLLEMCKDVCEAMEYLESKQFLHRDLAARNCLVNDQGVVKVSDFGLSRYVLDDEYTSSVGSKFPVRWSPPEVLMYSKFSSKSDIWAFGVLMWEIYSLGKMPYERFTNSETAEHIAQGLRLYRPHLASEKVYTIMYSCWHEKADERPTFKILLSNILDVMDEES
- Sequence (Q96SW2 whole entry): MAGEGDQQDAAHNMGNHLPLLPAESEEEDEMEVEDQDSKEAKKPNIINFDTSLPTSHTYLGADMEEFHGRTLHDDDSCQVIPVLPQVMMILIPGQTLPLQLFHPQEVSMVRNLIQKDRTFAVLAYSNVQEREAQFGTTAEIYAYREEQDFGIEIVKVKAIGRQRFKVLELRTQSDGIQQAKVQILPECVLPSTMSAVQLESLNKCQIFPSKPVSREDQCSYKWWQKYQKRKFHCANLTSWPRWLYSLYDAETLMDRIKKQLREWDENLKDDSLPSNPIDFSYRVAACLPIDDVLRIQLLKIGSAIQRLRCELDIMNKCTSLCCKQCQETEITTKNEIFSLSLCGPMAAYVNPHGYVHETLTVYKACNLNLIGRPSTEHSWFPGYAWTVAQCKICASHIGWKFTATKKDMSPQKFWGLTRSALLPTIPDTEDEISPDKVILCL
- assay_method_text: PROTAC activity at CRBN/BTK in human TMD8 cells assessed as induction of BTK degradation incubated for 24 hrs by immunoblotting analysis
measured_property: EC50 (nM)
The answer is to be given in nM; state only the numeric part.

Entry Cc1cccc(C)c1Nc1nn(C)c2nc(Nc3ccc4c(c3)CN(CC3CCN(c5ccc6c(c5)C(=O)N(C5CCC(=O)NC5=O)C6=O)CC3)CC4)ncc12 (stereo unspecified) : reported EC50 = ?
4

Hey, just so you know, these numbers are from ChEMBL document CHEMBL5331092.
